biological target: Carboxy-terminal domain RNA polymerase II polypeptide A small phosphatase 1 (Homo sapiens) (UniProt Q9GZU7); assay: Scp-1 phosphatase inhibitors, retest, confirmation, biochemical, colorimetric, single concentration (AID 540281); details: recombinant SCP-1 catalytic domain, phosphate release, malachite green absorbance; at 20 µM; stronger effect = higher value;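 further: plate controls were DMSO with enzyme for no effect and buffer wells lacking enzyme for full effect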
Sequence (Q9GZU7 76-261 limits assumed): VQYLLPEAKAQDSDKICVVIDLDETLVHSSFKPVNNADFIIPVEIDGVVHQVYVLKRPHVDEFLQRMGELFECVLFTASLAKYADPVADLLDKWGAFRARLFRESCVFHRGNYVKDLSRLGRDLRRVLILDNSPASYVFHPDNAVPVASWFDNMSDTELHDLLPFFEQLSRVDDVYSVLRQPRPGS
About 1,500 (60%) of roughly 2,500 compounds were called active. So high a share suggests a set chosen from earlier hits. A selection follows.
Please use 1 whenever inhibition is not below 9%, and -1 whenever it is.

Is it the case that O=C(Nc1cc(S(=O)(=O)N2CCCCC2)ccc1Cl)C1COc2ccccc2O1 (stereo not given) has inhibition reaching or exceeding 9%?
1

Is it the case that Cc1ccc(CCCOC(=O)C[N+]2(C)CCCC2)cc1 has inhibition reaching or exceeding 9%?
1

Is it the case that COc1ccc(NC(=O)N(C)C[C@H]2Oc3ccc(NC(=O)C4CC4)cc3C(=O)N([C@H](C)CO)C[C@@H]2C)cc1 has inhibition reaching or exceeding 9%?
-1

Is it the case that CCCc1nc(-c2cc3cc(C)ccc3[nH]c2=O)no1 has inhibition reaching or exceeding 9%?
1

---

The following compounds are listed with their measured inhibition values.
molecular target: Carboxy-terminal domain RNA polymerase II polypeptide A small phosphatase 1 (Homo sapiens) (UniProt Q9GZU7); assay: Scp-1 phosphatase inhibitors, retest, confirmation, biochemical, colorimetric, single concentration (AID 540281); settings: recombinant SCP-1 catalytic domain, phosphate release, malachite green absorbance; at 20 µM; stronger effect = higher value
Hit rate of the full screen: of about 2,500 compounds, about 1,500 (60%) were called active. The set was probably picked from earlier hits. A selection follows.
Please give a number only; it is taken to be in %.

| COMPOUND | inhibition (%) |
| --- | --- |
| O=[N+]([O-])c1cc(S(=O)(=O)Nc2cccc(Cl)c2)ccc1N=Nc1c(O)[nH]c2ccccc12 | 8.78 |
| Cn1c(N)c(C(=O)COC(=O)c2ccc3ccccc3c2)c(=O)n(C)c1=O | -18.1 |
| Cc1ccc(CCNC(=O)c2ccc3nc4ccccc4c(=O)n3c2)cc1 | 41.5 |

# lookup: inhibition of COC(=O)C[n+]1cccc2ccccc21
21

# lookup: inhibition of C=CC1C(OC2OC(CO)C(O)C(O)C2O)OC=C(C(=O)OC)C1CC1CC(=O)CC(CC(=O)CCc2ccc(O)cc2)O1 (stereo not given)
-13.1

---

target: Carboxy-terminal domain RNA polymerase II polypeptide A small phosphatase 1 (Homo sapiens); assay: Scp-1 phosphatase inhibitors, retest, confirmation, biochemical, colorimetric, single concentration (AID 540281); conditions: recombinant SCP-1 catalytic domain, phosphate release, malachite green absorbance; at 20 µM; stronger effect = higher value
Among all 2,500 compounds or so, about 1,500 (60%) were called active. The set was probably picked from earlier hits. Only a sample is shown.
Please use Met whenever inhibition is not below 60%, and Not met whenever it is.

| COMPOUND | CLASS_ASSIGNMENT |
| --- | --- |
| CCC(=O)Nc1ccccc1N1CCN(S(C)(=O)=O)CC1 | Not met |
| N#Cc1c(-c2cccs2)nc(SCC(=O)c2ccc(Br)cc2)[nH]c1=O | Met |
| Cc1c(Cl)cnc(NC(=O)COC(=O)c2ccc(S(=O)(=O)NCc3ccco3)cc2)c1Cl | Met |
| Cc1ccc(C2(C)NC(=O)N(CC(=O)Nc3ccccc3C(=O)N3CCCCC3)C2=O)cc1 (stereo unspecified) | Not met |
| COc1ccc(Cl)cc1NC(=O)CCS(=O)(=O)c1ccc(Br)cc1 | Met |
| O=C(CNC(=O)C(c1ccccc1)c1ccccc1)N/N=C\c1ccc2c(c1)OCO2 | Not met |
| O=c1[nH]n(-c2ccc([N+](=O)[O-])cc2)c(=O)c2ccccc12 | Not met |
| Cc1ccc(NC(=O)c2cc(-c3ccc(C)o3)nc3ccccc23)nc1 | Met |

Is it the case that CC(=O)Nc1ccc(N2C(=O)CCC2=O)cc1C has inhibition reaching or exceeding 60%?
Not met

Is it the case that Nn1cnnc1N/N=C/c1cc([N+](=O)[O-])c(Cl)cc1Cl has inhibition reaching or exceeding 60%?
Met

Is it the case that Cc1oc2c(C)c3oc(=O)c(CC(=O)N[C@@H](CC(C)C)C(=O)N[C@@H](Cc4ccccc4)C(=O)O)c(C)c3cc2c1C has inhibition reaching or exceeding 60%?
Met

Is it the case that Cc1ccccc1NC(=O)CN1C(=O)N/C(=C\c2cccn2-c2cccc(C(=O)O)c2)C1=O has inhibition reaching or exceeding 60%?
Met

Is it the case that N#Cc1ccccc1CN1C(=O)S/C(=C/c2cccn2-c2cccc(C(=O)O)c2)C1=O has inhibition reaching or exceeding 60%?
Met

Is it the case that N#Cc1ccc(C(=O)Nc2cccc3cccnc23)c(F)c1 has inhibition reaching or exceeding 60%?
Not met

---

molecular target: Carboxy-terminal domain RNA polymerase II polypeptide A small phosphatase 1 (Homo sapiens) (UniProt Q9GZU7); assay: Scp-1 phosphatase inhibitors, retest, confirmation, biochemical, colorimetric, single concentration (AID 540281); settings: recombinant SCP-1 catalytic domain, phosphate release, malachite green absorbance; at 20 µM; stronger effect = higher value;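 further: plate controls were DMSO with enzyme for no effect and buffer wells lacking enzyme for full effect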
Screen size: about 2,500 compounds; about 1,500 (60%) were called active. So high a share suggests a set chosen from earlier hits. Not all results are given here.
The following compounds are listed with their measured inhibition values.
Please give a number only; it is taken to be in %.

| COMPOUND | UNIT | inhibition |
| --- | --- | --- |
| CC(NC(=O)CC1SC(N)=NC1=O)c1ccccc1 (stereo not drawn) | % | -28.8 |
| COc1ccc(Cl)cc1C=CC=NNC(=O)c1ccncc1 | % | 38.5 |
| CCOc1ccc2nc(N(CCCN(C)C)C(=O)c3ccc(C(=O)c4ccccc4)cc3)sc2c1 | % | -4.94 |

# lookup: inhibition of COc1ccc(Cc2nnc(NC(=O)Cc3cccs3)s2)cc1
77.3

# lookup: inhibition of O=C(CN1CCN(c2ccc(Cl)cc2)CC1)c1ccccc1
-15.3

# lookup: inhibition of Cc1cc(/C=C2\SC(=O)N(C)C2=O)c(C)n1-c1cccc(C(=O)O)c1
38.7

# lookup: inhibition of Cc1nn(-c2cc(Cl)ccc2N)c(=O)c2ccccc12
32.6

# lookup: inhibition of O=C(N/N=C/c1ccco1)c1ccc(C(=O)N/N=C/c2ccco2)o1
56.8

---

target: Carboxy-terminal domain RNA polymerase II polypeptide A small phosphatase 1 (Homo sapiens) (UniProt Q9GZU7); test: Scp-1 phosphatase inhibitors, retest, confirmation, biochemical, colorimetric, single concentration (AID 540281); settings: recombinant SCP-1 catalytic domain, phosphate release, malachite green absorbance; at 20 µM; stronger effect = higher value;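 further: plate controls were DMSO with enzyme for no effect and buffer wells lacking enzyme for full effect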
Screen size: about 2,500 compounds; about 1,500 (60%) were called active. So high a share suggests a set chosen from earlier hits. The list is a sample of the results.
Please use fulfilled whenever inhibition is not below -10%, and not fulfilled whenever it is.

Reference set (5 entries):
| COMPOUND | CLASS_ASSIGNMENT |
| --- | --- |
| O=C(NNC(=O)c1ccc2ccccc2c1)c1ccc(Cl)cc1 | fulfilled |
| CSc1ccc(/C=N/NC(=O)c2cccc(Cl)c2)cc1 | fulfilled |
| O=C(Cn1nnc(-c2ccc3c(c2)OCO3)n1)NCc1ccco1 | fulfilled |
| COc1cccc(CNS(=O)(=O)c2csc(C(N)=O)c2)c1 | not fulfilled |
| CC1=NN(C(=O)CCc2ccccc2O)C(O)(C(F)(F)F)C1 (stereo unspecified) | not fulfilled |

Now look at this one.
Is it the case that CC1=NNC(=O)C1CCC(=O)N/N=C\c1cccc(Cl)c1 (stereo unspecified) has inhibition reaching or exceeding -10%?
not fulfilled

---

target: Carboxy-terminal domain RNA polymerase II polypeptide A small phosphatase 1 (Homo sapiens) (UniProt Q9GZU7); experiment: Scp-1 phosphatase inhibitors, retest, confirmation, biochemical, colorimetric, single concentration (AID 540281); settings: recombinant SCP-1 catalytic domain, phosphate release, malachite green absorbance; at 20 µM; stronger effect = higher value;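 further: plate controls were DMSO with enzyme for no effect and buffer wells lacking enzyme for full effect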
Among all 2,500 compounds or so, about 1,500 (60%) were called active. The set was probably picked from earlier hits. A selection follows.
The following compounds are listed with their measured inhibition values.
Please give a number only; it is taken to be in %.

| COMPOUND | RESULT_TYPE | UNIT | NUMBER |
| --- | --- | --- | --- |
| COCCCn1c(Cc2csc(Nc3cccc(Cl)c3)n2)nnc1SCC(=O)OC1CCCCC1 | inhibition | % | 59.1 |
| C[n+]1ccc(C(=O)NCc2ccccc2)cc1 | inhibition | % | 80.1 |
| COc1cccc2sc(N(CCCN(C)C)C(=O)C(c3ccccc3)c3ccccc3)nc12 | inhibition | % | -18.8 |
| NC(=O)NC(=O)CSc1nc2cc([N+](=O)[O-])ccc2n1-c1cccc(C(F)(F)F)c1 | inhibition | % | -1.8 |
| CCOC(=O)C1=C(C)c2ccccc2OC1(C)C(=O)OCC (configuration not stated) | inhibition | % | 39.1 |
| O=C(CCNC(=O)c1ccccc1)NN=Cc1ccc(Br)o1 | inhibition | % | 45 |

Now examine the next entry.
# lookup: inhibition of Cc1nnc(SCC(=O)Nc2ccc(S(=O)(=O)Nc3ccc(Cl)nn3)cc2)s1
58.2
